IC50 for human ACC2 (Homo sapiens (Human)) - collated from the literature.
property_measured: IC50 (µM)

CC(=O)NC(C)Cc1ccc(C#Cc2cccc(C(=O)N(C)CC(=O)OC(C)(C)C)c2)cc1 (stereo not drawn)	12.1
C[C@H](NC(=O)N1CCOCC1)c1ccc(OC2CCN(c3ccnc(N4CCC(F)(F)C4)c3F)C2)cc1 (stereo partly drawn)	0.205
CCOc1ccc(C#Cc2ccc(C(C)NC(C)=O)cc2)cc1 (stereo not drawn)	0.4

A. CC(=O)NC(C)Cc1ccc(C#Cc2cccc(C(=O)N(C)CCO)c2)cc1 (stereo not drawn)
B. C[C@H](NC(=O)c1cncs1)c1ccc(CN2Cc3ccc(OCC4CC4)cc3C(O)C2)cc1 (stereo partly drawn)
C. CC(=O)NC(C)Cc1ccc(C#Cc2ccc(Oc3ccccc3)cc2)cc1 (stereo not drawn)
D. CC(=O)NCCC[C@H]1OC[C@H](Oc2ccc(OC3CCCC3)cc2)CO1
Query: Hi! Can you put these in order of IC50, lowest number first? Write the labels, ordered according to the request.
Reply: C, D, B, A
(C: 0.12 µM, D: 0.2 µM, B: 0.308 µM, A: 6.5 µM)

I. COCCn1cncc1COc1ccc(C#Cc2ccc(CC(C)NC(C)=O)cc2)cc1 (stereo not drawn)
II. COCC(C)Oc1cc(N2CC[C@@H](Oc3ccc([C@H](C)NC(C)=O)cc3)C2)ccn1 (stereo partly drawn)
Query: Which shows the larger IC50 value: I or II ? To answer, give the label that identifies your chosen option.
Reply: I

a. COc1cccc(N2CCC(Oc3ccc([C@H](C)NC(C)=O)cc3)C2)n1 (stereo partly drawn)
b. CC(=O)N[C@@H](C)c1ccc(C2CN(c3ncnc(OCC4CC4)c3Cl)C2)cc1
Query: Which shows the larger IC50 value: a or b ? Use the label to indicate which entry you chose.
Reply: a

a. COc1cccc2c1CCN(Cc1ccc([C@H](C)NC(=O)c3cn[nH]c3)cc1)C2
b. CC(CCc1ccc(Oc2ccc(OC(C)C)nc2)cc1)NC(=O)CO (stereo not drawn)
Query: Pick the one with the larger IC50: a vs b // output: label of the selected item
Reply: b

A. CCOc1ccc(C#Cc2ccc(C(C)C(=O)NCc3ccn(C)n3)cc2)cc1 (stereo not drawn)
B. C[C@H](NC(=O)C1(C#N)CC1)c1ccc(CN2Cc3ccc(OCC4CC4)cc3C(F)C2)cc1 (stereo partly drawn)
C. CCC(=O)Nc1nc(C)c(C(=O)N[C@@H](C)c2ccc(O[C@@H]3CCN(c4ccnc(NCC(F)F)c4Cl)C3)cc2)s1
D. CCn1ccc(C#Cc2ccc(CC(C)NC(C)=O)cc2)cc1=O (stereo not drawn)
Query: # rank by IC50, ascending (min first) Form entry: ranked labels (order as requested).
Reply: B, C, A, D
(B: 0.062 µM, C: 0.116 µM, A: 1.5 µM, D: 12.9 µM)

1. CC(Cc1ccc(C#Cc2cnc(NC3CC3)nc2)cc1)NC(=O)C1CC1 (stereo not drawn)
2. CCNC(=O)C(C)c1ccc(O[C@@H]2CCN(c3ncc(OCC4CC4(F)F)cn3)C2)cc1 (stereo partly drawn)
3. CC(=O)N[C@@H](C)c1ccc(O[C@@H]2CCN(c3ccnc(OCC(F)F)c3C)C2)cc1
4. CCOc1ccc2c(c1OC)CCN(Cc1ccc([C@H](C)NC(C)=O)cc1)C2
5. C[C@H](NC(=O)c1cn[nH]c1)c1ccc(OC2CCN(c3ccc(OCC4CC4(F)F)cn3)C2)cc1 (stereo partly drawn)
Query: Hi! Can you put these in order of IC50, lowest number first? Record the ranking as a list of labels in the requested order.
Reply: 5, 3, 4, 2, 1
(5: 0.069 µM, 3: 0.115 µM, 4: 0.233 µM, 2: 0.444 µM, 1: 1.3 µM)

A. CC(C(=O)NC1CCC1)c1ccc(O[C@@H]2CCN(c3ncnc(OCC(C)(C)O)c3Cl)C2)cc1 (stereo partly drawn)
B. CCNC(=O)C(C)c1ccc(C#Cc2ccc(OC(C)C)nn2)cc1 (stereo not drawn)
Query: Could you kindly indicate whether A or B has the higher IC50 value? Kindly give the label for the entry you pick.
Reply: B
(B: 3.8 µM, A: 0.501 µM)

P. CC(Cc1ccc(C#Cc2cnc(N3CC4CCCC4C3)nc2)cc1)NC(=O)C1CC1 (stereo not drawn)
Q. C[C@H](NC(=O)C1CC1)c1ccc(CN2CCc3cc(OCCC4CC4)ccc3C2)cc1
Query: Which value of IC50 is smaller, the one for P or the one for Q ? Indicate your choice by writing its label.
Reply: Q
(Q: 0.047 µM, P: 0.58 µM)
